Target: apurinic/apyrimidinic endonuclease 1 (APE1) (UniProt P27695 1-318)
Sequence (P27695 whole entry): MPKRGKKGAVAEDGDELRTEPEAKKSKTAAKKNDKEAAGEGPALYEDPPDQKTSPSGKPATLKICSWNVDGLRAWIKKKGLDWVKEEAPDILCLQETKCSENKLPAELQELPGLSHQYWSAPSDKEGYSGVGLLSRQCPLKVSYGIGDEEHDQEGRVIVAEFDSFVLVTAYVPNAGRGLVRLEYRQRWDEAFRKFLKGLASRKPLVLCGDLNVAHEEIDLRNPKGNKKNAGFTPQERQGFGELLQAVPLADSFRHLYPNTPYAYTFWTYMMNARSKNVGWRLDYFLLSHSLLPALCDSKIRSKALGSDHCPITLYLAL
Assay: BLI; BLI (Octet QKe), 20 °C: polβ, APE1, LIGIIIα in 20 mM Hepes pH 7.4, 200 mM NaCl, 0.5% BSA, 0.05% Tween 20; LIG1 in 50 mM Tris-HCl pH 7.5, 100 mM KCl, 1 mM DTT; no Mg2+ listed
Conditions: protein: recombinant; tags: His; label: 3'-biotin on strand 2; nicked duplex; strands 1 and 2 pair with strand 3; blunt outer ends
assay-metric: pKd
Please treat pKd as minus the base-10 logarithm of the molar concentration.

Respond only with pKd recorded for nick DNA (3'-dG:C) (dsDNA, 5'-phosphate on strand 2 at the nick; 3'-OH on strand 1) DNA 1: CATGGGCGGCATGAACCG DNA 2: GAGGCCCATCCTCACC DNA 3: GGTGAGGATGGGCCTCCGGTTCATGCCGCCCATG
6.70

Recorded values, source paper PMC11176775.
